Assay: Selectivity index, ratio of IC50 for cytotoxicity against human PANC-1 cells in nutrient-rich Dulbecco's modified Eagle's medium to PC50 for preferential cytotoxicity against human PANC-1 cells in nutrient-deprived medium
Format: toxicity, cell-based
Form field: selectivity ratio (one value per entry).

STRUCTURE | selectivity ratio
O=C(CCCCCCCCc1ccc(Cl)cc1)N1CCCCC1 | 19.8
S=C(CCCCCCCCc1ccccc1)N1CCCCC1 | > 45.5
O=C(/C=C/CCCC/C=C/c1ccc2c(c1)OCO2)N1CCCCC1 | 7.6
O=C(/C=C/CCCCCCc1ccccc1)N1CCCCCC1 | > 32.3
O=C(CCCCCCCCc1ccc2ccccc2c1)N1CCCCC1 | 14.5
Cc1ccc(CCCCCCCCC(=O)N2CCCCC2)cc1 | > 24.4
O=C(CCCCCCCCCCc1ccccc1)N1CCCCC1 | > 15.2
O=C(/C=C/CCCCCCc1ccccc1)Nc1ccccc1 | > 11.4
O=C(/C=C/CCCCCCc1ccccc1)N1CCOCC1 | > 8
O=C(CCCCCCCCc1cccc(F)c1)N1CCCCC1 | > 15.2
O=C(CCCCCCCCc1cccc(Cl)c1)N1CCCCC1 | > 23.3
O=C(/C=C/CCCCCCc1ccccc1)N1CCCC1 | > 24.4

====

Experiment: Selectivity index, ratio of IC50 for cytotoxicity against human PANC-1 cells in nutrient-rich Dulbecco's modified Eagle's medium to PC50 for preferential cytotoxicity against human PANC-1 cells in nutrient-deprived medium
Type: toxicity, cell-based

STRUCTURE | selectivity ratio
O=C(CCCCCCCCCc1ccccc1)N1CCCCC1 | > 15.4
O=C(CCCCCCCCc1ccccc1Cl)N1CCCCC1 | > 27.8
O=C(CCCOCCCCc1ccccc1)N1CCCCC1 | > 3.8
O=C(/C=C/CCCCCCc1ccccc1)NCc1ccccc1 | > 16.4
COc1ccc(CCCCCCCCC(=O)N2CCCCC2)cc1 | 23.5
O=C(CCCCCCCCc1ccc(C(F)(F)F)cc1)N1CCCCC1 | 16.9
O=C(/C=C/CCCCCCc1ccccc1)N1CCC(O)CC1 | > 10.6
